Molecular target: T1, biotinylated human DLL3 protein expressed as a human IgG1 fusion protein (human, UniProt Q9NYJ7 27-492, limits assumed, biotinylated)
T1 sequence: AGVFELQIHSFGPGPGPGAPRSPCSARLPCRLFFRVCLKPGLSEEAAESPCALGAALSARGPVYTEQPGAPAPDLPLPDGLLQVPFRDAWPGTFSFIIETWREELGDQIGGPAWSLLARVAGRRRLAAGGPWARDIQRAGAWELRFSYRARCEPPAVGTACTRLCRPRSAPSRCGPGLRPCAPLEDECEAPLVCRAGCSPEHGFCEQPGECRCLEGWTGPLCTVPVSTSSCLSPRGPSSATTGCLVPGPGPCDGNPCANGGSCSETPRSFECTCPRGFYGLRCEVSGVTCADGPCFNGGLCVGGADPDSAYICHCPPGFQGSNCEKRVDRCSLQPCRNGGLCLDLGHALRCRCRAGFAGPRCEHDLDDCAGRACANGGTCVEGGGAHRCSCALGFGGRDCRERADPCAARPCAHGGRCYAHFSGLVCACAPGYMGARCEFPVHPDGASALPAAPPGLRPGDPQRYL
Experiment: Octet BLI, single 50 nM
# Kd per entry
Lab book: enter the figure in nM, no units written.

Consider the following illustrative entries.
Kd in this record for 3F09 anti-DLL3 trispecific protein (other, not shown: linker 1808, anti-albumin sdAb, linker 1808, anti-CD3 fragment, His6 1819) EVQLVESGGGLVQPGGSLTLSCAASGSSVRFLSMAWYRQAPGKKRELVAGISRDGSTDYIDSVKGRFTISRDNAKNSVYLQMNSLRAEDTAVYYCYAYRWGTRYTYWGQGTLVTVSS : 12

Kd in this record for 4C06 anti-DLL3 trispecific protein (other, not shown: linker 1808, anti-albumin sdAb, linker 1808, anti-CD3 fragment, His6 1819) EVQLVESGGGLVQPGGSLTLSCAASNSSVSKLSMAWYRQAPGKKRELVAGISADGSTAYIDSVKGRFTISRDNAKNSVYLQMNSLRAEDTAVYYCYAYRWSTRYTYWGQGTLVTVSS : 6.8

Kd in this record for 2E010 anti-DLL3 trispecific protein (other, not shown: linker 1808, anti-albumin sdAb, linker 1808, anti-CD3 fragment, His6 1819) EVQLVESGGGLVQPGGSLTLSCVASGSTSSINAMAWYRRAPGKQRELVAGISSDGSKVYADSVKGRFTISRDNAKNSVYLQMNSLRAEDTAVYYCYYFHTVSGSSMRYWGQGTLVTVSS : 4

Kd in this record for 3F03 anti-DLL3 trispecific protein (other, not shown: linker 1808, anti-albumin sdAb, linker 1808, anti-CD3 fragment, His6 1819) EVQLVESGGGLVQPGGSLTLSCAASGSSVSFLSMAWYRQAPGKKRELVAGISADGSTDYIDSVKGRFTISRDNAKNSVYLQMNSLRAEDTAVYYCYAYRWRTRYTYWGQGTLVTVSS : 13

Kd in this record for 2E01 anti-DLL3 trispecific protein (other, not shown: linker 1808, anti-albumin sdAb, linker 1808, anti-CD3 fragment, His6 1819) EVQLVESGGGLVQPGGSLTLSCVASGSTSSINAMGWYRRAPFKQGELPAGISPDGTKAYADSAKVRFTISRDNAKNSVYLQMNSLRAEDTAVYYCYYFHTVCGTSMGYWGQGTLVTVSS : 4.1

Kd in this record for 1C02 anti-DLL3 trispecific protein (other, not shown: linker 1808, anti-albumin sdAb, linker 1808, anti-CD3 fragment, His6 1819) EVQLVESGGGLVQPGGSLTLSCVASGSTSSINAMAWYRRAPGKQRELVAGISSDGSKVYSDSVKGRFTISRDNAKNSVYLQMNSLRAEDTAVYYCYYFRTVSGSSMRSWGQGTLVTVSS : 6.2

Kd in this record for 3A09 anti-DLL3 trispecific protein (other, not shown: linker 1808, anti-albumin sdAb, linker 1808, anti-CD3 fragment, His6 1819) EVQLVESGGGLVQPGGSLTLSCAASGSSVSFLSMAWYRQAPGKKRELVAGISADGSVDYIDSVKGRFTISRDNAKNSVYLQMNSLRAEDTAVYYCYAYRWTTRYIYWGQGTLVTVSS : 6.3

# evaluate next
Kd in this record for 2B011 anti-DLL3 trispecific protein (other, not shown: linker 1808, anti-albumin sdAb, linker 1808, anti-CD3 fragment, His6 1819) EVQLVESGGGLVQPGGSLTLSCVASGNTSSINAMGWYRRAPGKQRELVAGISSDGSRVYADSVKGRFTISRDNAKNSVYLQMNSLRAEDTAVYYCYYFRTVSGSSMRSWGQGTLVTVSS : 11
